Please go through the items and note down their composite z-score.
# Tested on: Sonic hedgehog protein (Shh)
# METHOD_SUMMARY: Sonic hedgehog microarray binding compounds – biochemical, small-molecule microarray, 635/667 nm fluorescence, primary screen (AID 1151);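 also: Shh protein binding to compounds spotted on small-molecule microarray slides; score combines spot fluorescence intensity with signal-to-noise across triplicate slides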
# PARTICULARS: 635 nm fluorescence, higher = more signal
Numbers only.

State, for Sonic hedgehog protein (Shh), measured composite z-score of the compound listed here: C=CCOC(=O)[C@H]1[C@@H]2C(=O)O[C@@H](c3ccccc3)[C@@H](c3ccccc3)N2[C@@H](c2ccc(OCCOC(=O)[C@@H]3C[C@@H]4C(=O)NCC(=O)N4[C@@H]3c3ccc(O)cc3)cc2)[C@]12C(=O)Nc1ccc(I)cc12 2.04

State, for Sonic hedgehog protein (Shh), measured composite z-score of the compound listed here: COc1ccc(C(O)C2C=CC3C(=O)N(c4ccccc4)C(=O)C3N2Nc2ccccc2)c2ccccc12 (configuration not stated) -0.506

State, for Sonic hedgehog protein (Shh), measured composite z-score of the compound listed here: CN(C)CCCCCCNC(=O)[C@@H]1C[C@@H]2C(=O)N[C@@H](Cc3ccccc3)C(=O)N2[C@@H]1c1cccc(OCCO)c1 1.28

State, for Sonic hedgehog protein (Shh), measured composite z-score of the compound listed here: [N-]=[N+]=NCc1ccccc1C[C@@]1(C(=O)NCc2ccccc2)N=C(c2ccc(OCCCO)cc2)O[C@@H]1c1ccccc1CN=[N+]=[N-] -0.603

State, for Sonic hedgehog protein (Shh), measured composite z-score of the compound listed here: CCOC(=O)N1C(c2ccc(OCCCO)cc2)=NC(C(=O)OC)N1C(=O)OCC (configuration not stated) 1.13

State, for Sonic hedgehog protein (Shh), measured composite z-score of the compound listed here: NC(=O)[C@]1(Cc2ccccc2)N=C(c2ccc(OCCCO)cc2)O[C@@H]1c1ccccc1 -0.955

For every item in the list below, what is its measured composite z-score?
1. C[C@]1(C(=O)NCC(F)(F)F)c2ccccc2C(=O)N(Cc2cc(F)cc(C(F)(F)F)c2)[C@H]1c1ccc(CO)cc1
2. COC(=O)[C@@]1(Cc2ccc(F)cc2)[C@H]2c3cc(C(=O)N(C)C)n(CCCNc4ccc(C(F)(F)F)cc4Cl)c3C[C@H]2CN1C(=O)c1ccccc1
3. C=CCOC(=O)[C@@H]1[C@H]2C(=O)O[C@H](c3ccccc3)[C@H](c3ccccc3)N2[C@H](c2ccc(OCCOC(=O)[C@H]3C[C@H]4C(=O)N[C@@H](CC(C)C)C(=O)N4[C@H]3c3cccc(OCCO)c3)cc2)[C@@]12C(=O)Nc1ccc(I)cc12

0.394
-0.576
2.06

For every item in the list below, what is its measured composite z-score?
1. O=P(NCC1(CC2(c3ccccc3)CO2)CC1)(c1ccccc1)c1ccccc1 (configuration not stated)
2. CCN(CC)c1ccc(N2CC=CC34O[C@@H]5/C=C\CCC(C)OC(=O)C5[C@H]3C(=O)N(CCCCCCO)[C@@H]4C2=O)cc1 (some centres not stated)

1: -1.41; 2: -0.166

---

Please go through the items and note down their composite z-score.
# MEASUREMENT_TARGET: Dickkopf-related protein 1 (Homo sapiens)
# METHOD_SUMMARY: small molecules binding DKK1 protein – biochemical, small-molecule microarray, 635 nm fluorescence scan, primary screen (AID 1106);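 also: score merges emission near 667 nm with signal to noise over three replicate slides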
# PARTICULARS: higher = more signal
One number for each entry.

Answered cases to consult:
Given C=CCOC(=O)[C@@H]1[C@H]2C(=O)O[C@H](c3ccccc3)[C@H](c3ccccc3)N2[C@H](c2ccc(OCCOC(=O)[C@H]3C[C@H]4C(=O)N[C@@H](Cc5ccccc5)C(=O)N4[C@H]3c3ccc(O)cc3)cc2)[C@@]12C(=O)Nc1ccc(I)cc12 , respond with its composite z-score. 1.26

Given C=CC[C@@]1(C(=O)OC)N=C(c2ccc(OCCCO)cc2)O[C@@H]1c1ccccc1CN=[N+]=[N-] , respond with its composite z-score. -0.231

Given COc1ccc([Si](C)(C)[C@H]2[C@H](CC(=O)N3CCC[C@H]3CO)O[C@@]3(C(=O)N(c4ccccc4)c4ccccc43)[C@@H]2C)cc1 , respond with its composite z-score. 0.487

Given O=C1C2C=CC(C(O)c3ccc(B(O)O)cc3)N(Nc3ccc([N+](=O)[O-])cc3)C2C(=O)N1c1ccccc1 (stereo not drawn) , respond with its composite z-score. -0.0757

Given O=C1O[C@H](c2ccccc2)[C@H](c2ccccc2)N2[C@H]1[C@@H](C(=O)NC[C@H](O)c1ccccc1)[C@]1(C(=O)Nc3ccc(C#CC4=CCCCC4)cc31)[C@H]2c1ccc(O)cc1 , respond with its composite z-score. 0.542

Given C[N+](C)(C)CCCC[C@@H]1NC(=O)[C@@H]2C[C@H](C(=O)NCCCCCCNC(=O)CS)[C@H](c3cccc(OCCO)c3)N2C1=O , respond with its composite z-score. 0.383

Given COCCOC(=O)N1C(=O)[C@@]2(c3cc(C#CCCO)ccc31)[C@H](C(=O)NC[C@H](O)c1ccccc1)[C@H]1C(=O)O[C@H](c3ccccc3)[C@H](c3ccccc3)N1[C@@H]2c1ccc(OCCO)cc1 , respond with its composite z-score. 0.512

Given CCN(CC)c1ccc(N2CC=CC34O[C@@H]5/C=C\CCCOC(=O)C5[C@H]3C(=O)N(CCCO)[C@@H]4C2=O)cc1 (stereo partly drawn) , respond with its composite z-score. -1.75

For every item in the list below, what is its measured composite z-score?
1. CCCCCN1CC=CC23O[C@@H]4C=CCCOC(=O)C4[C@H]2C(=O)N(CCCO)[C@@H]3C1=O (stereo partly drawn)
2. CC(C)C(CO)N1C(=O)[C@@H]2[C@H]3C(=O)OCC=C[C@H]3OC23C=CCN(c2ccc4ccccc4c2)C(=O)[C@@H]13 (stereo partly drawn)
3. COc1ccc([Si](C)(C)[C@H]2[C@H](CCO)O[C@@]3(C(=O)N(Cc4ccccc4)c4ccc(N5C(=O)COc6ccccc65)cc43)[C@@H]2C)cc1
4. COc1ccc(C(O)C2C=CC3C(=O)N(c4ccccc4)C(=O)C3N2Nc2ccccc2)c2ccccc12 (stereo not drawn)
5. C/C=C/[C@H](CCn1cc([C@H](O)c2ccccc2)nn1)[Si](C)(C)c1ccc(OC)cc1
6. C=CC[C@@]1(C(=O)NCCN2CCOCC2)N=C(c2ccc(OCCCO)cc2)O[C@@H]1c1ccccc1CN=[N+]=[N-]
7. COc1c(C)cc(-c2cc3c(c(-c4ccccc4)n2)[Si](C(C)C)(C(C)C)O[C@H]3c2ccccc2)cc1C

1. 0.0124
2. -0.688
3. -0.214
4. -0.611
5. -0.338
6. 0.137
7. 0.211

---

# METHOD_SUMMARY: probe aWnt5a binding to arrayed compounds – biochemical, biotinylated probe, 635/667 nm fluorescence, primary screen (AID 1113);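 also: score merges 667 nm fluorescence intensity with signal-to-noise per printed feature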
# PARTICULARS: small-molecule microarray, higher = more signal
Values of composite z-score greater than or equal to 0.08 map to Fulfilled; values below map to Not fulfilled.

Could you verify whether the entry C=CCC(OC(C)=O)[C@@H]1[C@@H](N(Cc2cc3ccccc3o2)C(=O)c2cccc3ccccc23)c2cc(OCCCO)ccc2N1C(=O)Cc1ccc2ccccc2c1 (some centres undefined) shows composite z-score of no less than 0.08? Not fulfilled

Could you verify whether the entry Cn1c2c(c3ccccc31)C(=O)C1NC2C=CC1(C)C(=O)OCc1ccccc1 (centres undefined) shows composite z-score of no less than 0.08? Not fulfilled

Could you verify whether the entry CCCCC(=C=CC[C@H](O)c1ccccc1OCCO)C[C@H](O)c1cc(Cl)cc(Cl)c1O shows composite z-score of no less than 0.08? Not fulfilled

Could you verify whether the entry COC(=O)[C@@]1(Cc2ccc(OC)cc2)[C@H]2c3cc(C(=O)N(C)C)n(CCSCCO)c3C[C@H]2CN1C(=O)c1ccccc1 shows composite z-score of no less than 0.08? Fulfilled

Could you verify whether the entry COC(=O)[C@@]1(Cc2ccc(F)cc2)[C@H]2c3cc(C(=O)N4CCCC4)n(Cc4ccc(Cl)c(C(F)(F)F)c4)c3C[C@H]2CN1C(=O)c1ccccc1 shows composite z-score of no less than 0.08? Fulfilled

Could you verify whether the entry O=C1C[C@@](C(=O)O)(c2ccc([N+](=O)[O-])cc2)[C@@H](c2ccc(CO)cc2I)N1C1CCCCC1 shows composite z-score of no less than 0.08? Not fulfilled

Could you verify whether the entry COC(=O)[C@@]1(Cc2ccc(OC)cc2)[C@H]2c3cc(C(=O)N(C)C)n(Cc4ccc(OC)c(OC)c4)c3C[C@H]2CN1C(=O)c1ccccc1 shows composite z-score of no less than 0.08? Fulfilled

Could you verify whether the entry CC(=O)NCCCC[C@@H]1NC(=O)[C@@H]2C[C@H](C(=O)NCCCCCC[N+](C)(C)C)[C@H](c3cccc(OCCO)c3)N2C1=O shows composite z-score of no less than 0.08? Fulfilled

Others:
Could you verify whether the entry O=C1c2ccccc2[C@@]2(Cc3ccccc3N(Cc3ccccc3)C2=O)[C@H](c2ccc(CO)cc2)N1Cc1ccccc1C(F)(F)F shows composite z-score of no less than 0.08? Not fulfilled

Could you verify whether the entry CCCC[C@@H]1C[C@H]1[C@@H](NC(=O)c1ccco1)c1ccccc1 shows composite z-score of no less than 0.08? Not fulfilled

Could you verify whether the entry CC(C)N1C(=O)c2ccccc2[C@](C)(C(=O)NC2CC2)[C@@H]1c1ccc(CO)cc1 shows composite z-score of no less than 0.08? Not fulfilled

Could you verify whether the entry Cc1ccc(S[C@]2(C(=O)NCC(C)C)CC(=O)N(Cc3ccccc3)[C@@H]2c2ccc(CO)cc2)cc1 shows composite z-score of no less than 0.08? Not fulfilled

Could you verify whether the entry C[N+](C)(C)CCCC[C@@H]1NC(=O)[C@H]2C[C@@H](C(=O)O)[C@@H](c3cccc(OCCO)c3)N2C1=O shows composite z-score of no less than 0.08? Fulfilled
